These data points were gathered from patent US20150231240A1.

Listed next: entries and their corresponding pEC50.
Molecular target: T1, human C16orf54 (human, UniProt Q6UWD8 1-224)
T1 construct: also called huC16orf54; hC16orf54
T1 sequence: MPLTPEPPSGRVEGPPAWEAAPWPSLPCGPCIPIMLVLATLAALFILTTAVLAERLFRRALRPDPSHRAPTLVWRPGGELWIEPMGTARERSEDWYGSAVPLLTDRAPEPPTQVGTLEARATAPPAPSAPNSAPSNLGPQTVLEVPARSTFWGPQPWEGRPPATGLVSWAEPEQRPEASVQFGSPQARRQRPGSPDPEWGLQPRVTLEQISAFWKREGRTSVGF
Assay: flow cytometry titration, KG1 cells (endogenous human C16orf54)
The value called pEC50 is obtained by taking minus log10 of the concentration in mol/L.

R29-8-12A (antibody, V domains shown, Murine monoclonal antibody from a hybridoma) VH: EVKLVESGGGLVKPGGSLKFSCAASGFTFSSYAVSWVRQTPEKRLEWVASITSGGRTYYPDSVKGRFTISRDNARSMLYLHMSSLRSEDTAMYYCTRGWDENDLWGQGTTLTVSS VL: DVVMTQTPLSLPVSLGDQASISCRSSQSLVYSNGNTYLHWYLQKPGQSPQLLIYKVSNRFSGVPDRFSGSGSGTDFTLKISRVEAEDLGVYFCSQTTHVPWTFGGGTKLEIK
8.96
R29-8-57B (antibody, V domains shown, Murine monoclonal antibody from a hybridoma) VH: DVQLQESGPGLVKPSQSLSLTCTVTGYSITSDYAWNWIRQFPGNKLEWMGYINYSGSTRYNPSLKSRISITRDTSKNHFFLQLNSVTPEDTATYHCARERYDGVYYGMDYWGQGTSVTVSS VL: DIVMSQSPSSLAVSVGEKVTMSCKSSQSLLYSSNQKNYLAWYQQKPGQSPKLLIYWASTRESGVPDRFTGSGSGTDFTLTISSVKTEDLAVYYCQQYYSYRTFGGGTKLEIK
10.00

Consider the additional binder presented here.
Entry R29-8-50C (antibody, V domains shown, Murine monoclonal antibody from a hybridoma) VH: EVKLVESGGGLVKPGGSLKFSCAASGFTFSSYAVSWVRQTPEKRLEWVASITSGGRTYYPDSVKGRFTISRDNARSMLYLHMSSLRSEDTAMYYCTRGWDENDLWGQGTTLTVSS VL: DVVMTQTPLSLPVSLGDQASISCRSSQSLVYSNGNTYLHWYLQRPGQSPQLLIYKVSNRFSGVPDRFSGSGSGTDFTLKISRVEAEDLGVYFCSQTTHVPWTFGGGTKLEIK , pEC50 reported as 9.15
